- Tested on: SK-MEL-2 melanoma
- ASSAY PROTOCOL: NCI-60 one-dose screen, 48 h
- CONDITION LABEL: 10 µM
Compounds without any hit were thinned out: in the full panel of roughly 83,000, 20% have a hit. The source made the active and inactive calls. How the source made its calls: active means growth percent below 10; inactive means the rest.
Outcomes you can answer with include only these: Y = active, N = inactive

MOLECULE	CLASS LABEL
O=C1/C=C/[C@@H](O)[C@@H]2C[C@@H](O)C[C@H]2/C=C/CCC[C@H](CCc2ccc(NC(=S)Nc3ccc4c(c3)C(=O)OC43c4ccc(O)cc4Oc4cc(O)ccc43)cc2)O1	Y
CC1(C)N=C(N)N=C(N)N1c1cccc(C#N)c1	N
CN1CCN(CCC(=O)Nc2cccc(-n3cc(-c4ccncc4)c(-c4ccc(Cl)c(O)c4)n3)c2)CC1	N
COc1ccc2c(c1)OC(N)=C(C#N)C2c1cc(OC)c(OC)c(OC)c1 (configuration not stated)	N
CCN(CCCNc1cc2c(c(N)c1S(=O)(=O)O)C(=O)c1ccccc1C2=O)c1ccccc1	N
Oc1cccc(-c2nc3sccn3c2-c2ccncn2)c1	N
COc1cc(-c2nn(-c3ccc(NC(=O)NCCNS(=O)(=O)c4ccc(F)cc4)cc3)cc2-c2ccncc2)ccc1Cl	Y
CC(=O)Nc1ccc(S(=O)(=O)c2ccnc3cc(Cl)ccc23)cc1	N

Next up:
[Q] Which outcome was entered for the molecule "O=C1CCn2c1c(O)c1ccccc1c2=O" in this test?
[A] N
